# System tested: T1, serum resistance-associated protein (SRA) from Trypanosoma brucei rhodesiense, recombinant SRA (SEQ ID NO: … (Trypanosoma brucei rhodesiense, UniProt O96637 31-274))
# T1 construct: also called SRA protein
# T1 sequence: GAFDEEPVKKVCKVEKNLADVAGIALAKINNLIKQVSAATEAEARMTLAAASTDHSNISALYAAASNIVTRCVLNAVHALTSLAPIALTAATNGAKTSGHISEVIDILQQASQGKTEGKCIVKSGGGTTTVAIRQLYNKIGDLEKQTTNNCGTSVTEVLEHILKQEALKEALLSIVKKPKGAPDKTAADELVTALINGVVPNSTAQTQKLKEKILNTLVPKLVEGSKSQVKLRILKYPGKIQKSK
# Procedure text: SPR, mAb captured, 25C, pH 7.4
# t ½ listing for each entry below
Attribute measured: t ½

- H2bM10093N (antibody, V domains shown, Chimeric antibody, human variable domains and mouse constant domains; also called H2aM10093N; H2M10093N) VH: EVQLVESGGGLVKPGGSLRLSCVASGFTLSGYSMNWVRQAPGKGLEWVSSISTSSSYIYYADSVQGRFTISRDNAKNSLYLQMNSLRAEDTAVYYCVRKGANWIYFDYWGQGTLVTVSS VL: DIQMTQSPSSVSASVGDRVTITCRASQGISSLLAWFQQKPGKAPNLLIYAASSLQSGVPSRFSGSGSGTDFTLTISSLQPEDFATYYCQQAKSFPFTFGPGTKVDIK: 0.383 h
- H1H10061P (antibody, V domains shown, Fully human antibody with human IgG1 Fc (prefix H1H)) VH: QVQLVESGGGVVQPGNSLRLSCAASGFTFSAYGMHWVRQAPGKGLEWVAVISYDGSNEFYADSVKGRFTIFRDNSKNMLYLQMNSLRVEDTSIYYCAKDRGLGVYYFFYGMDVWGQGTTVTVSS VL: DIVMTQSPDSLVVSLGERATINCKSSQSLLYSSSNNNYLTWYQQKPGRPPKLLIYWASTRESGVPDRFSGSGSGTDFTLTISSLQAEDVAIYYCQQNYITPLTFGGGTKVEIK: ≥ 3.85 h
- H1H10056P (antibody, V domains shown, Fully human antibody with human IgG1 Fc (prefix H1H)) VH: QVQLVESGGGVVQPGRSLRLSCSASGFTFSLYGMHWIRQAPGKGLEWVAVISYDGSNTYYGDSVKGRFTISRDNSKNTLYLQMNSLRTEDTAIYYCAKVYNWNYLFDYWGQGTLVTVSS VL: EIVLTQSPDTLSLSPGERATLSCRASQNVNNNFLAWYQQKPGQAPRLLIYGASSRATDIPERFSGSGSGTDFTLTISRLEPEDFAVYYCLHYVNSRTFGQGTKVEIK: ≥ 3.85 h
